assayRemarks: Single oral capsule dose in NHP: plasma caffeine by LC-MS/MS
Format: in vivo, Macaca fascicularis
testParameters: male, cynomolgus monkey, plasma, po, 82 mg dosing group, 4x10 mg caffeine
measurementType: Cmax (ng/mL)

{"columns": ["testSmiles", "val"],
 "data": [
  ["Cn1c(=O)c2c(ncn2C)n(C)c1=O", 3790]
]}

----------
assayRemarks: Single oral capsule dose in NHP: plasma caffeine by LC-MS/MS
Format: in vivo, Macaca fascicularis
testParameters: male, cynomolgus monkey, plasma, po, 20.5 mg dosing group, 1x10 mg caffeine

{"columns": ["testSmiles", "unitLabel", "Cmax"],
 "data": [
  ["Cn1c(=O)c2c(ncn2C)n(C)c1=O", "ng/mL", 800]
]}

----------
assayRemarks: Single oral capsule dose in NHP: plasma caffeine by LC-MS/MS
Assay type: in vivo, Macaca fascicularis
testParameters: male, cynomolgus monkey, plasma, po, 4x10 mg caffeine
measurementType: Cmax (ng/mL)

{"columns": ["testSmiles", "val"],
 "data": [
  ["Cn1c(=O)c2c(ncn2C)n(C)c1=O", 6120]
]}

----------
assayRemarks: Single oral capsule dose in NHP: plasma caffeine by LC-MS/MS
Format: in vivo, Macaca fascicularis
testParameters: male, cynomolgus monkey, plasma, po, 1 mg dosing group, 1x10 mg caffeine

{"columns": ["compound", "Cmax / ng/mL"],
 "data": [
  ["Cn1c(=O)c2c(ncn2C)n(C)c1=O [caffeine]", 1350]
]}

----------
assayRemarks: Single oral capsule dose in NHP: plasma caffeine by LC-MS/MS
Format: in vivo, Macaca fascicularis
testParameters: male, cynomolgus monkey, plasma, po; all doses
measurementType: Tmax (h)

{"columns": ["testSmiles", "unitLabel", "val"],
 "data": [
  ["Cn1c(=O)c2c(ncn2C)n(C)c1=O", "h", 4]
]}
